Field: Displacement. Provide a value for each of the compounds that follow.
biological target: Cannabinoid receptor 2 (Homo sapiens) (UniProt P34972); assay: Displacement of [3H]CP-55940 from human CB2 receptor expressed in CHO cells at 10 uM; type: cell-based
Sequence (P34972 whole entry): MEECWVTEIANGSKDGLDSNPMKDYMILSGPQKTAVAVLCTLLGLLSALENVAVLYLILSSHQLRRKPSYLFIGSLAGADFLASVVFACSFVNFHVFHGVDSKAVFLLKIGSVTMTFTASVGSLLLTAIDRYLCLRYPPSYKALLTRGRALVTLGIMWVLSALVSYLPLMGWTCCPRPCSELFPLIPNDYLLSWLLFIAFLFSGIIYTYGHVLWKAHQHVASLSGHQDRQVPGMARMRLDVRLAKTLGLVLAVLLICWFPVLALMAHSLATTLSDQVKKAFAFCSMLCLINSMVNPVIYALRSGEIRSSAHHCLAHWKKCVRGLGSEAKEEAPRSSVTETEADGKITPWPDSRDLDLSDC

Request: Write down Displacement measured for item O=C1N(CCc2ccccc2)C(=S)NC1(c1ccccc1)c1ccccc1
Result: < 10%

Request: Report Displacement, nothing else, for this compound: CCCCN1C(=O)C(c2ccc(I)cc2)(c2ccc(I)cc2)NC1=S
Result: < 20%

Request: Give reported Displacement value for C=CCN1C(=O)C(c2ccc(I)cc2)(c2ccc(I)cc2)NC1=S
Result: < 20%

Request: Specify Displacement for O=C1N(Cc2ccco2)C(=S)NC1(c1ccccc1)c1ccccc1 and stop.
Result: < 15%

Request: Quick one: give measured Displacement for O=C1N(CCCO)C(=S)NC1(c1ccccc1)c1ccccc1
Result: < 10%

Request: Answer with reported Displacement of CCN1C(=O)C(c2ccc(Br)cc2)(c2ccc(Br)cc2)NC1=S
Result: < 20%

Request: Give a short answer stating reported Displacement for CCCCCCN1C(=O)C(c2ccccc2)(c2ccccc2)NC1=S .
Result: < 10%

Request: For the compound CC(C)N1C(=O)C(c2ccc(Br)cc2)(c2ccc(Br)cc2)NC1=S , report Displacement.
Result: < 15%

Request: Specify reported Displacement for the compound shown: C=CCN1C(=O)C(c2ccccc2)(c2ccccc2)NC1=S
Result: < 15%

Request: Please give the documented Displacement of O=C1N(Cc2ccccc2)C(=S)NC1(c1ccc(Br)cc1)c1ccc(Br)cc1
Result: < 10%

Request: Please indicate Displacement recorded for O=C1N(Cc2ccccc2)C(=S)NC1(c1ccccc1)c1ccccc1
Result: < 10%

Request: Report measured Displacement; entry is CC(C)CN1C(=O)C(c2ccccc2)(c2ccccc2)NC1=S
Result: < 10%

Request: Provide measured Displacement value, entry: CCN1C(=O)C(c2ccccc2)(c2ccccc2)NC1=S
Result: < 10%

Request: Could you please provide reported Displacement for CCCCCCCN1C(=O)C(c2ccc(Br)cc2)(c2ccc(Br)cc2)NC1=S ? Thanks!
Result: < 10%

Request: Assign Displacement to the following record: CCCCN1C(=O)C(c2ccccc2)(c2ccccc2)NC1=S
Result: < 10%

Request: Supply recorded Displacement for CC(C)N1C(=O)C(c2ccccc2)(c2ccccc2)NC1=S here.
Result: < 10%

Request: Kindly indicate its recorded Displacement. Item: C=CCN1C(=O)C(c2ccc(Br)cc2)(c2ccc(Br)cc2)NC1=S
Result: < 15%

Request: Supply Displacement value. Item: CCCCN1C(=O)C(c2ccc(Br)cc2)(c2ccc(Br)cc2)NC1=S
Result: < 15%

Request: Hello, please tell me recorded Displacement for this one: COCCCN1C(=O)C(c2ccccc2)(c2ccccc2)NC1=S
Result: < 15%

Request: Look up and state reported Displacement for CCCCCCN1C(=O)C(c2ccc(Br)cc2)(c2ccc(Br)cc2)NC1=S
Result: < 10%

Request: For CCCCCCCN1C(=O)C(c2ccc(Cl)cc2)(c2ccc(Cl)cc2)NC1=S , write its Displacement.
Result: < 10%

Request: Output Displacement of CCCCCCCCN1C(=O)C(c2ccc(Cl)cc2)(c2ccc(Cl)cc2)NC1=S
Result: < 10%

Request: Kindly indicate its recorded Displacement. Item: CC(C)CN1C(=O)C(c2ccc(Cl)cc2)(c2ccc(Cl)cc2)NC1=S
Result: < 20%
